Where these numbers come from: PubChem BioAssay

- Tested system: Focal adhesion kinase 1 (Homo sapiens) (UniProt Q05397)
- Sequence (Q05397 whole entry, looked up): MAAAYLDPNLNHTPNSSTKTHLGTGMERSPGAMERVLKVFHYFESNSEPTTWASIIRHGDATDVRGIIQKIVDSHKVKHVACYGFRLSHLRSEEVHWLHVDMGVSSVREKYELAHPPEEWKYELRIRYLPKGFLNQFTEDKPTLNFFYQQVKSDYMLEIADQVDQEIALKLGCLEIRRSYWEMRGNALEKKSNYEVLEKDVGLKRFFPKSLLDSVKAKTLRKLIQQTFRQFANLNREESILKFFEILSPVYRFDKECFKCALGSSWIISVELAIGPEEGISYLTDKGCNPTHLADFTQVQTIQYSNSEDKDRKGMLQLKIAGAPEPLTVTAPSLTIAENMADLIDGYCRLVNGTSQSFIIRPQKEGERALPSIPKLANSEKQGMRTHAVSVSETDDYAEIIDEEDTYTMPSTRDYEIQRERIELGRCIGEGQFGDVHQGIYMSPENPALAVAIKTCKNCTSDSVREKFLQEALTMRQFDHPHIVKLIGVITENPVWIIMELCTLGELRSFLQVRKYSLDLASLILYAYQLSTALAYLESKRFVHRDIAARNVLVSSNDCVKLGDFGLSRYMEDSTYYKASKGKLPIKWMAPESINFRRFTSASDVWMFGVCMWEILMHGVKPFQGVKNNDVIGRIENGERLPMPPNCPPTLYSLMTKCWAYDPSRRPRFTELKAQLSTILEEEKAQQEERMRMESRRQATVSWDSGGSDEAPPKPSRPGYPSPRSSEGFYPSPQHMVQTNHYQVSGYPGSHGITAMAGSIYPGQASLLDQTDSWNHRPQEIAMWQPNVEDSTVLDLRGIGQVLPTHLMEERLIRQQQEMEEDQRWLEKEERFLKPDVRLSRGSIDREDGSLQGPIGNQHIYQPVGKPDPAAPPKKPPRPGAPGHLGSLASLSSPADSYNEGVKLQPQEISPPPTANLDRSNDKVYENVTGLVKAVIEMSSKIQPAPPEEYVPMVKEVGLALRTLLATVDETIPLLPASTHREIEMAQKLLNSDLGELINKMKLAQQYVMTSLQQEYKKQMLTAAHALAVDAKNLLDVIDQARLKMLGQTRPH
- Measurement description: small-molecule microarray binders of FAK, primary screen, biochemical, 635/667 nm fluorescence, BSA, DTT (AID 1130);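 also: composite of spot emission at 667 nm and signal to noise over triplicate slides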
- Details: PTK2 binding, 635 nm fluorescence, higher = more signal
Class membership depends on composite z-score alone; the intervals are small value = under 0.1, mid value = from 0.1 up to 0.8, large value = 0.8 and over

{"Compound": "CC(C)(C)N1CC=CC23O[C@@H]4/C=C\\CCCOC(=O)C4[C@H]2C(=O)N(CCO)[C@@H]3C1=O (some centres undefined)", "Tested system": "Focal adhesion kinase 1 (Homo sapiens) (UniProt Q05397)", "Group": "mid value"}
{"Compound": "COCCOC(=O)N1C(=O)[C@@]2(c3cc(C#CCNC(N)=O)ccc31)[C@H](c1ccc(OCCO)cc1)N1[C@H](c3ccccc3)[C@H](c3ccccc3)OC(=O)[C@H]1[C@@H]2C(=O)N1CCc2cc(OC)c(OC)cc2C1", "Tested system": "Focal adhesion kinase 1 (Homo sapiens) (UniProt Q05397)", "Group": "mid value"}
{"Compound": "O=C(CS)NCCCCCCNC(=O)[C@H]1C[C@H]2C(=O)NCC(=O)N2[C@H]1c1ccc(O)cc1", "Tested system": "Focal adhesion kinase 1 (Homo sapiens) (UniProt Q05397)", "Group": "mid value"}
{"Compound": "CC(C)CNC(=O)[C@@]1(c2ccc([N+](=O)[O-])cc2)CC(=O)N(CC23CC4CC(CC(C4)C2)C3)[C@@H]1c1ccc(CO)cc1I", "Tested system": "Focal adhesion kinase 1 (Homo sapiens) (UniProt Q05397)", "Group": "mid value"}
{"Compound": "O=C1C[C@]2(c3ccc([N+](=O)[O-])cc3)C(=O)N(CC(F)(F)F)c3cc(CO)ccc3[C@H]2N1CC12CC3CC(CC(C3)C1)C2", "Tested system": "Focal adhesion kinase 1 (Homo sapiens) (UniProt Q05397)", "Group": "small value"}
{"Compound": "O=C1OCCC=C[C@H]2OC34C=CCN(Cc5ccccc5)C(=O)[C@H]3N(CCCO)C(=O)[C@@H]4C12 (some centres undefined)", "Tested system": "Focal adhesion kinase 1 (Homo sapiens) (UniProt Q05397)", "Group": "small value"}
{"Compound": "C[C@]1(C(=O)NCc2ccccc2)c2ccccc2C(=O)N(Cc2ccc(OC(F)(F)F)cc2)[C@H]1c1ccc(CO)cc1", "Tested system": "Focal adhesion kinase 1 (Homo sapiens) (UniProt Q05397)", "Group": "mid value"}
{"Compound": "CN(C)CCCCNC(=O)[C@H]1C[C@H]2C(=O)N[C@@H](Cc3ccccc3)C(=O)N2[C@H]1c1ccc(O)cc1", "Tested system": "Focal adhesion kinase 1 (Homo sapiens) (UniProt Q05397)", "Group": "small value"}
{"Compound": "COC(=O)[C@@]1(Cc2ccc(F)cc2)[C@H]2c3cc(C(=O)N(C)C)n(CCc4ccccn4)c3C[C@H]2CN1C(=O)c1ccccc1", "Tested system": "Focal adhesion kinase 1 (Homo sapiens) (UniProt Q05397)", "Group": "large value"}
{"Compound": "O=C1O[C@@H](c2ccccc2)[C@@H](c2ccccc2)N2[C@@H](c3ccc(O)cc3)[C@]3(C(=O)Nc4ccc(C#CC5(O)CCCCCC5)cc43)[C@@H](C(=O)N3CCCCCCC3)[C@H]12", "Tested system": "Focal adhesion kinase 1 (Homo sapiens) (UniProt Q05397)", "Group": "large value"}
{"Compound": "O=C1N(CCS(=O)(=O)c2ccccc2)c2ccccc2C[C@@]12COC(c1ccc(OCCCO)cc1)=N2", "Tested system": "Focal adhesion kinase 1 (Homo sapiens) (UniProt Q05397)", "Group": "large value"}
{"Compound": "[N-]=[N+]=NCc1ccccc1C[C@@]1(C(=O)NCC(O)CO)N=C(c2ccc(OCCCO)cc2)O[C@@H]1c1ccccc1CN=[N+]=[N-] (some centres undefined)", "Tested system": "Focal adhesion kinase 1 (Homo sapiens) (UniProt Q05397)", "Group": "large value"}
{"Compound": "O=C1C=CC(=O)[C@@H]2CC(COc3ccccc3)=C3[C@@H](CCc4ccccc4)OB(O)C[C@@H]3[C@H]12", "Tested system": "Focal adhesion kinase 1 (Homo sapiens) (UniProt Q05397)", "Group": "small value"}
{"Compound": "CCCN1C(=O)[C@@]2(CCC(=O)OC(C)(C)C)N=C(c3ccc(OCCCO)cc3)O[C@H]2c2ccccc21", "Tested system": "Focal adhesion kinase 1 (Homo sapiens) (UniProt Q05397)", "Group": "mid value"}
{"Compound": "COc1ccc(CCNC(=O)[C@@]2(Sc3ccc(C)cc3)CC(=O)N(Cc3ccccc3Cl)[C@@H]2c2ccc(CO)cc2I)cc1", "Tested system": "Focal adhesion kinase 1 (Homo sapiens) (UniProt Q05397)", "Group": "small value"}
{"Compound": "COc1ccc(C(O)C2C=CC3C(=O)NC(=O)C3N2Nc2ccccn2)cc1OCc1ccccc1 (centres undefined)", "Tested system": "Focal adhesion kinase 1 (Homo sapiens) (UniProt Q05397)", "Group": "small value"}
{"Compound": "COC(=O)[C@@]1(Cc2ccccc2)[C@H]2c3cc(C(=O)N4CCCC4)n(C)c3C[C@H]2CN1C(=O)c1ccccc1", "Tested system": "Focal adhesion kinase 1 (Homo sapiens) (UniProt Q05397)", "Group": "large value"}
{"Compound": "N#Cc1ccc(NN2C(C(O)c3ccc([N+](=O)[O-])cc3)C=CC3C(=O)N(c4ccccc4)C(=O)C32)cc1 (centres undefined)", "Tested system": "Focal adhesion kinase 1 (Homo sapiens) (UniProt Q05397)", "Group": "large value"}
{"Compound": "C=CCC(OC(C)=O)[C@@H]1[C@@H](N(Cc2ccc(-c3ccccc3)cc2)C(=O)Cc2ccc(F)cc2)c2cc(OCCCO)ccc2N1C(=O)c1ccc2ccccc2n1 (some centres undefined)", "Tested system": "Focal adhesion kinase 1 (Homo sapiens) (UniProt Q05397)", "Group": "small value"}
{"Compound": "[N-]=[N+]=Nc1ccccc1[C@H]1OC(c2ccc(OCCCO)cc2)=N[C@@]1(CCS(=O)(=O)c1ccccc1)C(=O)O", "Tested system": "Focal adhesion kinase 1 (Homo sapiens) (UniProt Q05397)", "Group": "small value"}
{"Compound": "CCOC(=O)C1=CC[C@@H](c2ccccc2)N(S(=O)(=O)c2ccc(C)cc2)[C@H]1C(=O)OCC", "Tested system": "Focal adhesion kinase 1 (Homo sapiens) (UniProt Q05397)", "Group": "large value"}
{"Compound": "COC(=O)[C@@]1(Cc2ccc(OC)cc2)[C@H]2c3cc(C(=O)N4CCCC4)n(Cc4ccccn4)c3C[C@H]2CN1C(=O)c1ccccc1", "Tested system": "Focal adhesion kinase 1 (Homo sapiens) (UniProt Q05397)", "Group": "mid value"}
{"Compound": "CC(C)C(=C=CC[C@H](O)c1ccccc1OCCO)C[C@H](O)c1ccccn1", "Tested system": "Focal adhesion kinase 1 (Homo sapiens) (UniProt Q05397)", "Group": "mid value"}
{"Compound": "COC(=O)c1ccc(C(O)C2C=CC3C(=O)N(C)C(=O)C3N2NC(=O)OC(C)(C)C)o1 (centres undefined)", "Tested system": "Focal adhesion kinase 1 (Homo sapiens) (UniProt Q05397)", "Group": "mid value"}
{"Compound": "CCOC(=O)C1=CC[C@@H](c2ccccc2Cl)N(S(=O)(=O)c2ccc(C)cc2)C1", "Tested system": "Focal adhesion kinase 1 (Homo sapiens) (UniProt Q05397)", "Group": "large value"}
{"Compound": "N[C@@H](Cc1ccccc1)Cn1cc(-c2ccccc2)nn1", "Tested system": "Focal adhesion kinase 1 (Homo sapiens) (UniProt Q05397)", "Group": "small value"}
{"Compound": "O=C1N(CCS(=O)(=O)c2ccccc2)Cc2ccccc2C[C@]12N=C(c1ccc(OCCCO)cc1)O[C@@H]2c1ccccc1", "Tested system": "Focal adhesion kinase 1 (Homo sapiens) (UniProt Q05397)", "Group": "mid value"}
{"Compound": "CO[C@H]1O[C@H](CO)[C@@H](OC(=O)Nc2ccc(Oc3ccccc3)cc2)[C@H](OC(=O)Nc2ccccc2)[C@H]1OC(=O)Nc1ccccc1", "Tested system": "Focal adhesion kinase 1 (Homo sapiens) (UniProt Q05397)", "Group": "large value"}
